Overview of recorded glycan array binding signal (z-score) for various binders
target: Fuc(a1-2)[Gal(a1-3)]Gal(b1-3)GlcNAc; assay: glycan array binding signal (z-score within array); higher = stronger binding; details: glycan notation: IUPAC condensed, linker removed
Shown is part of a subset that was picked to be rich in the strongest signals.
Give the figure only, with no unit attached.

1) FimD (Bordetella pertussis) (protein) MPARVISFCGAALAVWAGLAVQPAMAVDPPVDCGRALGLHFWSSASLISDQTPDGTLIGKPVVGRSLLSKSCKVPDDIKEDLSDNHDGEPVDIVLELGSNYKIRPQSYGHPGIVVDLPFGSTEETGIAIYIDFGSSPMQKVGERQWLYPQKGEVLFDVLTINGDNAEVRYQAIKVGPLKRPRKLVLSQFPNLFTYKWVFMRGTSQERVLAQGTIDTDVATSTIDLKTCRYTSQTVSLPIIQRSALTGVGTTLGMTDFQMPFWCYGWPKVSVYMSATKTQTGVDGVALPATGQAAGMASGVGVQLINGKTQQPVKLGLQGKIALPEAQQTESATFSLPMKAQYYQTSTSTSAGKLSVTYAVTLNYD : -0.256

Exercise: Value lookup for glycan array binding signal (z-score); key = Epa2 (Candida glabrata) (protein) MGSSHHHHHHSSGLVPRGSHMASSKDPTSFPMGCSPQVLKTQPGLAVKLYSYGHPVPGCAYNTYQYPDFPRSGYKKERKLADITGVNGRIDIDLKPNDPCRVLSGNLPSNYNYQNTLTYTNFTMILYGYFQPKVTGYHTFNLEADDLLFMNLGAGNAFDCCRAESTLDNFGNYQSYSIWGTDKATADLTVFLVSGIYYPIRLFYVNRDNNAVLDFSFSTEFNKEIIHDFTSYFFSASDEEQCPGNI
Key: -0.553
